- method-description: in vivo
- condition-set: male, ICR, mouse, po, 10 mg/kg, AUCINF_obs, C5N17B+Ritonavir, po 10 mg/kg, non-compartmental output, individual mice
test-readout: AUC(0-inf) (ng·h/mL)
The reply should be a number in ng·h/mL, with the unit left off.

For Cc1cncc(C(=O)N2C[C@H]3CC[C@@H](C2)N3[C@H](c2cccc(F)c2)c2cn(CCc3ccsc3)nn2)c1 [Compound C5N17B] , write its AUC(0-inf).
10400

---

- method-description: In vivo pharmacokinetic study in male ICR mice (compound alone)
- condition-set: male, ICR, mouse, plasma, oral, 10 mg/kg, PO 10 mg/kg (10MPK), 2 hr, sample marked "re", individual mouse; read-out: Plasma concentration (Calculated Concentration), re-analysis
test-readout: concentration at 2 hr (ng/mL)
The reply should be a number in ng/mL, with the unit left off.

For Cc1cncc(C(=O)N2C[C@H]3CC[C@@H](C2)N3[C@H](c2cccc(F)c2)c2cn(CCc3ccsc3)nn2)c1 [Compound C5N17B] , write its concentration at 2 hr.
15.7

---

- method-description: in vitro
- condition-set: human
test-readout: CC50

For CC(C)(C)[C@H](NC(=O)C(F)(F)F)C(=O)N1C[C@H]2[C@@H]([C@H]1C(=O)N[C@H](C#N)C[C@@H]1CCNC1=O)C2(C)C [Nirmatrelvir, reference compound] , write its CC50.
> 100 µM

---

- method-description: in vivo
- condition-set: male, ICR, mouse, po, 10 mg/kg, T1/2, Mean, C5N17B+Ritonavir, PO 10 mg/kg, mean of 3 mice
test-readout: half-life (h)
The reply should be a number in h, with the unit left off.

For Cc1cncc(C(=O)N2C[C@H]3CC[C@@H](C2)N3[C@H](c2cccc(F)c2)c2cn(CCc3ccsc3)nn2)c1 [Compound C5N17B] , write its half-life.
3.14

---

- method-description: In vivo pharmacokinetic study in male ICR mice (compound alone)
- condition-set: male, ICR, mouse, plasma, po, 10 mg/kg, PO 10 mg/kg, 6 h, mean (only 5# quantifiable); read-out: plasma concentration, Mean
test-readout: concentration at 6 h (ng/mL)
The reply should be a number in ng/mL, with the unit left off.

For Cc1cncc(C(=O)N2C[C@H]3CC[C@@H](C2)N3[C@H](c2cccc(F)c2)c2cn(CCc3ccsc3)nn2)c1 [Compound C5N17B] , write its concentration at 6 h.
2.52

---

- Tested on: SARS‐CoV‐2 (hCoV‐19/Korea/KCDC06/2020, wild type)
- method-description: microbe, parasite or virus in culture
- Format: cell-based
- condition-set: Severe acute respiratory syndrome coronavirus 2, Calu-3, read-out: EC50 ± SD, Calu‐3 cells, without P‐gp inhibitor
Measured EC50 values are reported for all entries that follow.
The reply should be a number in nM, with the unit left off.

CC(C)(C)[C@H](NC(=O)C(F)(F)F)C(=O)N1C[C@H]2[C@@H]([C@H]1C(=O)N[C@H](C#N)C[C@@H]1CCNC1=O)C2(C)C [Nirmatrelvir, reference compound] : 1000

// below: EC50 requested for another molecule
Look up SARS‐CoV‐2 (hCoV‐19/Korea/KCDC06/2020, wild type) data: EC50 of Cn1cnc(Cn2c(=O)[nH]/c(=N\c3cc4cn(C)nc4cc3Cl)n(Cc3cc(F)c(F)cc3F)c2=O)n1 [Ensitrelvir, reference compound] , then report it.
110

---

- method-description: In vivo pharmacokinetic study in male ICR mice (compound alone)
- condition-set: male, ICR, mouse, plasma, iv, 2 mg/kg, IV 2 mg/kg, individual mice 1#-3#; read-out: MRT0-∞
test-readout: MRT inf (min)
The reply should be a number in min, with the unit left off.

For Cc1cncc(C(=O)N2C[C@H]3CC[C@@H](C2)N3[C@H](c2cccc(F)c2)c2cn(CCc3ccsc3)nn2)c1 [Compound C5N17B] , write its MRT inf.
6.6

---

- method-description: In vivo pharmacokinetic study in male ICR mice (compound alone)
- condition-set: male, ICR, mouse, plasma, po, 10 mg/kg, PO 10 mg/kg, mean of mice 4#-6#; read-out: AUC0-t, Mean
test-readout: AUC(0-t) (ng·h/mL)
The reply should be a number in ng·h/mL, with the unit left off.

For Cc1cncc(C(=O)N2C[C@H]3CC[C@@H](C2)N3[C@H](c2cccc(F)c2)c2cn(CCc3ccsc3)nn2)c1 [Compound C5N17B] , write its AUC(0-t).
41.3

---

- method-description: In vivo pharmacokinetic study in male ICR mice (compound alone)
- condition-set: male, ICR, mouse, plasma, oral, 10 mg/kg, PO 10 mg/kg (10MPK), 5 min, mean of mice 4#-6#; read-out: Plasma concentration, Mean
test-readout: concentration at 5 min (µg/mL)
The reply should be a number in µg/mL, with the unit left off.

For Cc1cncc(C(=O)N2C[C@H]3CC[C@@H](C2)N3[C@H](c2cccc(F)c2)c2cn(CCc3ccsc3)nn2)c1 [Compound C5N17B] , write its concentration at 5 min.
0.0406

---

- method-description: In vivo pharmacokinetic study in male ICR mice (compound alone)
- condition-set: male, ICR, mouse, plasma, oral, 10 mg/kg, PO 10 mg/kg (10MPK), 6 hr, mouse plasma, individual mice 4-6; read-out: Plasma concentration (Calculated Concentration)
test-readout: concentration at 6 h (ng/mL)
The reply should be a number in ng/mL, with the unit left off.

For Cc1cncc(C(=O)N2C[C@H]3CC[C@@H](C2)N3[C@H](c2cccc(F)c2)c2cn(CCc3ccsc3)nn2)c1 [Compound C5N17B] , write its concentration at 6 h.
2.52

---

- method-description: In vivo pharmacokinetic study in male ICR mice (compound alone)
- condition-set: male, ICR, mouse, plasma, iv, 2 mg/kg, IV 2 mg/kg, individual mice 1#-3#; read-out: T1/2 (converted)
test-readout: half-life (min)
The reply should be a number in min, with the unit left off.

For Cc1cncc(C(=O)N2C[C@H]3CC[C@@H](C2)N3[C@H](c2cccc(F)c2)c2cn(CCc3ccsc3)nn2)c1 [Compound C5N17B] , write its half-life.
6.42

---

- method-description: In vivo pharmacokinetic study in male ICR mice (compound alone)
- condition-set: male, ICR, mouse, plasma, iv, 2 mg/kg, i.v. 2 mg kg^−1, male ICR mice, n = 3; read-out: MRT0‐∞, i.v.
test-readout: MRT

For Cc1cncc(C(=O)N2C[C@H]3CC[C@@H](C2)N3[C@H](c2cccc(F)c2)c2cn(CCc3ccsc3)nn2)c1 [Compound C5N17B] , write its MRT.
6.96 min

---

- method-description: In vivo pharmacokinetic study in male ICR mice (compound alone)
- condition-set: male, ICR, mouse, plasma, iv, 2 mg/kg, IV 2 mg/kg, mean of mice 1#-3#; read-out: MRT0-∞, Mean
- Description: The pharmacokinetics profile of the newly developed antiviral compound C5N17B was subsequently evaluated in male ICR mice that were free from specific pathogens, aiming to assess its potential for therapeutic application in vivo. A total of six male ICR mice were randomly assigned to two groups. […] All samples were quantified using an LC‐MS/MS‐AR Triple Quad 5500+ (SCIEX, USA) and the ExionLC liquid phase system. […] The pharmacokinetic parameters were calculated by WinNolin 8.2 software.
test-readout: MRT inf (min)
The reply should be a number in min, with the unit left off.

For Cc1cncc(C(=O)N2C[C@H]3CC[C@@H](C2)N3[C@H](c2cccc(F)c2)c2cn(CCc3ccsc3)nn2)c1 [Compound C5N17B] , write its MRT inf.
6.96

---

- method-description: in vivo
- condition-set: male, ICR, mouse, po, 10 mg/kg, Cmax, C5N17B+Ritonavir, po 10 mg/kg, non-compartmental output, individual mice
test-readout: Cmax (ng/mL)
The reply should be a number in ng/mL, with the unit left off.

For Cc1cncc(C(=O)N2C[C@H]3CC[C@@H](C2)N3[C@H](c2cccc(F)c2)c2cn(CCc3ccsc3)nn2)c1 [Compound C5N17B] , write its Cmax.
2270

---

- method-description: in vivo
- condition-set: male, ICR, mouse, po, 10 mg/kg, AUCall, C5N17B+Ritonavir, po 10 mg/kg, non-compartmental output, individual mice
test-readout: AUC (ng·h/mL)
The reply should be a number in ng·h/mL, with the unit left off.

For Cc1cncc(C(=O)N2C[C@H]3CC[C@@H](C2)N3[C@H](c2cccc(F)c2)c2cn(CCc3ccsc3)nn2)c1 [Compound C5N17B] , write its AUC.
9690

---

- method-description: In vivo pharmacokinetic study in male ICR mice (compound alone)
- condition-set: male, ICR, mouse, plasma, iv, 2 mg/kg, IV 2 mg/kg, individual mice 1-3; read-out: MRTINF_obs
- Method: The pharmacokinetics profile of the newly developed antiviral compound C5N17B was subsequently evaluated in male ICR mice that were free from specific pathogens, aiming to assess its potential for therapeutic application in vivo. A total of six male ICR mice were randomly assigned to two groups. […] All samples were quantified using an LC‐MS/MS‐AR Triple Quad 5500+ (SCIEX, USA) and the ExionLC liquid phase system. […] The pharmacokinetic parameters were calculated by WinNolin 8.2 software.
test-readout: MRT inf (min)
The reply should be a number in min, with the unit left off.

For Cc1cncc(C(=O)N2C[C@H]3CC[C@@H](C2)N3[C@H](c2cccc(F)c2)c2cn(CCc3ccsc3)nn2)c1 [Compound C5N17B] , write its MRT inf.
6.61
